- Tested on: Lolium perenne (LOLPE)
- procedure.text: Post-emergence efficacy, glasshouse, evaluated after 13 days
- Assay type: in vivo
- details: Lolium perenne, 312 h; post-emergence application, 500 g/Ha, evaluated after 13 days; read-out: Control of weed species LOLPE (100=total damage to plant; 0=no damage to plant)
Each record's pest or weed control at 500 g/ha is compared with lower band (below 10%), central band (10% to below 60%), upper band (60% or more) to give its class.

Input: Please indicate the class for CCCCNC(=O)c1cc[n+](CCS(=O)(=O)[O-])nc1 [Compound A50] based on its pest or weed control at 500 g/ha.
Output: central band

Input: Then C#CCNC(=O)c1cc[n+](CCNS(=O)(=O)[O-])nc1 [Compound A141] ?
Output: upper band

Input: Then CC1(C)CC(NC(=O)c2cc[n+](CCC(=O)O)nc2)=NO1 [Compound A131] ?
Output: lower band

Input: Then CCNC(=O)c1cc[n+](CC(=O)OC)nc1 [Compound A89] ?
Output: lower band

Input: Then O=C(O)CC[n+]1ccc(C(=O)NCc2ccccc2)cn1 [Compound A21] ?
Output: central band

Input: Then CN(C)C(=O)c1cn[n+](CCS(=O)(=O)O)cc1-c1ccccc1 [Compound A64] ?
Output: central band

Input: Then CNC(=O)c1cc[n+](CCS(=O)(=O)[O-])nc1 [Compound A1] ?
Output: upper band

Input: Then O=C(O)CC[n+]1ccc(C(=O)NCC(F)(F)C(F)(F)F)cn1 [Compound A97] ?
Output: upper band

Input: Then CN(CC#N)C(=O)c1cc[n+](CCC(=O)O)nc1 [Compound A107] ?
Output: lower band

Input: Then CC(C)NC(=O)c1cc[n+](CCC(=O)[O-])nc1 [Compound A6] ?
Output: upper band

Input: Then CCNC(=O)c1cc[n+](CCC(=O)O)nc1 [Compound A43] ?
Output: central band

Input: Then CC1(NC(=O)c2cc[n+](CCNS(=O)(=O)[O-])nc2)CC1 [Compound A99] ?
Output: central band

Input: Then CCCNC(=O)c1cc[n+](CCC(=O)O)nc1 [Compound A46] ?
Output: central band

Input: Then O=C(O)CC[n+]1ccc(C(=O)N2CCCC2)cn1 [Compound A26] ?
Output: upper band

Input: Then CC(O)CCNC(=O)c1cc[n+](CCC(=O)O)nc1 (centres unmarked) [Compound A127] ?
Output: upper band

Each recorded value in this set is attributed to patent US20210403435A1.
